# assay: Cytotoxicity against mouse NIH/3T3 cells assessed as reduction in cell viability after 72 hrs by MTT assay
# Type: toxicity, cell-based, NIH3T3
endpoint-name: log10 of IC50 at 72 h (log10 of the value in µM)
Form field - Quantity: IC50 at 72 h; Unit: µM; Scale: log10

COC(=O)c1c2cc[n+](CCNCCN)cc2c(C)c2c1[nH]c1ccccc12 :: 0.27
Cc1c2ccncc2c(C)c2c1[nH]c1ccccc12 :: -0.52
CNC(=O)NCCNCCNC(=O)c1c2cc[n+](C)cc2c(C)c2c1[nH]c1ccccc12 :: 1.65

Enquiry: Suppose we examine the compound CNC(=O)NCCCNC(=O)c1c2cc[n+](C)cc2c(C)c2c1[nH]c1ccccc12 ; what log10 of IC50 at 72 h value has been reported?
Return: 1.49

Enquiry: Value lookup for log10 of IC50 at 72 h; key = Cc1c2c[n+](C)ccc2c(C(=O)NCCCN)c2[nH]c3ccccc3c12
Return: 1.62

Enquiry: Which measured log10 of IC50 at 72 h value corresponds to Cc1c2cc[n+](CCOCCN)cc2c(C)c2c1[nH]c1ccc(O)cc12.[Cl-] ?
Return: 0.38

Enquiry: Consider the compound Cc1c2cc[n+](CCOCCN)cc2c(C)c2c1[nH]c1ccccc12.[Cl-] and give its measured log10 of IC50 at 72 h.
Return: 0.94
